Biological target: UniProt:Q12809
Sequence (Q12809 whole entry): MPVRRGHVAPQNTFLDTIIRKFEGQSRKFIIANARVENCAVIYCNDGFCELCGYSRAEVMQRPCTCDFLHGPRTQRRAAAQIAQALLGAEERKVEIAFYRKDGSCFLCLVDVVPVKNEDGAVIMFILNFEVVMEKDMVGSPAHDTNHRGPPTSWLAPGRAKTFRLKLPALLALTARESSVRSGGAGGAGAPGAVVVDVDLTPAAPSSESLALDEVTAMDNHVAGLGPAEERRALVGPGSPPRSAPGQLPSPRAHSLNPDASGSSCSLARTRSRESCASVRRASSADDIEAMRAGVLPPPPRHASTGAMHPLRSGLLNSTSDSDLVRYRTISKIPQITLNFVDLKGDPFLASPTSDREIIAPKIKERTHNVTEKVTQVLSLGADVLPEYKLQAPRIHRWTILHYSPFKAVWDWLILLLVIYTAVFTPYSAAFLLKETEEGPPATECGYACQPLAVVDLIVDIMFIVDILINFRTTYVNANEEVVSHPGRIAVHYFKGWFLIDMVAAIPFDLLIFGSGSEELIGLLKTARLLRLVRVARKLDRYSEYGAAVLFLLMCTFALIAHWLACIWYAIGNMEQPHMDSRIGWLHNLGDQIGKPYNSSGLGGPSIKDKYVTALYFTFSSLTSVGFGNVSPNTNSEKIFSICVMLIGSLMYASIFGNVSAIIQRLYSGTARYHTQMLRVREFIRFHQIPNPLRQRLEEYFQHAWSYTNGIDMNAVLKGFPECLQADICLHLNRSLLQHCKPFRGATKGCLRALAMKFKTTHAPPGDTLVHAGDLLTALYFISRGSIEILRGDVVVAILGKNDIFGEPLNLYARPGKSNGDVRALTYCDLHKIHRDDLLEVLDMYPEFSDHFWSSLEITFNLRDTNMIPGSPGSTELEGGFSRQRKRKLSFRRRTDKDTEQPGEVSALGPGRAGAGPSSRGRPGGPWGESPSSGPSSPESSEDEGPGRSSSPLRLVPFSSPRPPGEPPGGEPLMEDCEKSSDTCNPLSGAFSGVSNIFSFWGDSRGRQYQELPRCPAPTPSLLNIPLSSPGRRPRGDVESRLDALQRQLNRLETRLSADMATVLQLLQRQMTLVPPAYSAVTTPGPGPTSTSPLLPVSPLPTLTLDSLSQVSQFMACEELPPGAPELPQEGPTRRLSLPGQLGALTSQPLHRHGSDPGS
Assay: hERG screening assay (PatchXpress patch clamp, CHO cell line)
Details: 1 μM
Kindly state hERG Patch Clamp hERG % blk for each of the entries shown.
Please give a number only; it is taken to be in %.

So for CC1=C(C(=O)OCc2ccccc2)C(c2sccc2-c2ccc(F)cc2)n2nnnc2N1 (stereo not drawn) [PT-397] , the logged hERG Patch Clamp hERG % blk turned out to be 10.0

So for CC1=C(C(=O)OCc2ccccc2)C(c2ccccc2N2CCCCC2)n2nnnc2N1 (stereo not drawn) [PT-342] , the logged hERG Patch Clamp hERG % blk turned out to be 10.0

So for CC1=C(C(=O)N2CCN(c3ccccc3)CC2)C(c2ccc3ccccc3c2)C2=C(CCCC2=O)N1 (stereo not drawn) [PT-165] , the logged hERG Patch Clamp hERG % blk turned out to be 30.5

So for CCOC(=O)C1=C(C)NC(C)=C(C(=O)OCC)C1c1ccc2ccccc2c1 [PT-107] , the logged hERG Patch Clamp hERG % blk turned out to be 11.5

So for CC1=C(C(=O)OCc2ccccc2)C(c2c(Br)sc3ccccc23)n2nnnc2N1 (stereo not drawn) [PT-386] , the logged hERG Patch Clamp hERG % blk turned out to be 10.0

So for COc1cc(Cl)ccc1COC(=O)C1=C(C)NC2=C(C(=O)CCC2)C1c1c(Cl)cccc1Cl (stereo not drawn) [PT-303] , the logged hERG Patch Clamp hERG % blk turned out to be 12.0

So for CC1=C(c2nnc(CCc3ccccc3)o2)C(c2cccc3ccccc23)n2nnnc2N1 (stereo not drawn) [PT-252] , the logged hERG Patch Clamp hERG % blk turned out to be 10.5

So for CC1=C(C(=O)OCc2ccccc2)C(c2csc3ccccc23)n2nnnc2N1 (stereo not drawn) [PT-042] , the logged hERG Patch Clamp hERG % blk turned out to be 11.0

So for CC1=C(C(=O)OCc2ccccc2)C(c2ccc(N(C)C)c3ccccc23)n2nnnc2N1 (stereo not drawn) [PT-032] , the logged hERG Patch Clamp hERG % blk turned out to be 19.0

* * *

Target: wild-type human cardiac sodium channel, hNav1.5 (Homo sapiens)
Sequence (Q14524 whole entry): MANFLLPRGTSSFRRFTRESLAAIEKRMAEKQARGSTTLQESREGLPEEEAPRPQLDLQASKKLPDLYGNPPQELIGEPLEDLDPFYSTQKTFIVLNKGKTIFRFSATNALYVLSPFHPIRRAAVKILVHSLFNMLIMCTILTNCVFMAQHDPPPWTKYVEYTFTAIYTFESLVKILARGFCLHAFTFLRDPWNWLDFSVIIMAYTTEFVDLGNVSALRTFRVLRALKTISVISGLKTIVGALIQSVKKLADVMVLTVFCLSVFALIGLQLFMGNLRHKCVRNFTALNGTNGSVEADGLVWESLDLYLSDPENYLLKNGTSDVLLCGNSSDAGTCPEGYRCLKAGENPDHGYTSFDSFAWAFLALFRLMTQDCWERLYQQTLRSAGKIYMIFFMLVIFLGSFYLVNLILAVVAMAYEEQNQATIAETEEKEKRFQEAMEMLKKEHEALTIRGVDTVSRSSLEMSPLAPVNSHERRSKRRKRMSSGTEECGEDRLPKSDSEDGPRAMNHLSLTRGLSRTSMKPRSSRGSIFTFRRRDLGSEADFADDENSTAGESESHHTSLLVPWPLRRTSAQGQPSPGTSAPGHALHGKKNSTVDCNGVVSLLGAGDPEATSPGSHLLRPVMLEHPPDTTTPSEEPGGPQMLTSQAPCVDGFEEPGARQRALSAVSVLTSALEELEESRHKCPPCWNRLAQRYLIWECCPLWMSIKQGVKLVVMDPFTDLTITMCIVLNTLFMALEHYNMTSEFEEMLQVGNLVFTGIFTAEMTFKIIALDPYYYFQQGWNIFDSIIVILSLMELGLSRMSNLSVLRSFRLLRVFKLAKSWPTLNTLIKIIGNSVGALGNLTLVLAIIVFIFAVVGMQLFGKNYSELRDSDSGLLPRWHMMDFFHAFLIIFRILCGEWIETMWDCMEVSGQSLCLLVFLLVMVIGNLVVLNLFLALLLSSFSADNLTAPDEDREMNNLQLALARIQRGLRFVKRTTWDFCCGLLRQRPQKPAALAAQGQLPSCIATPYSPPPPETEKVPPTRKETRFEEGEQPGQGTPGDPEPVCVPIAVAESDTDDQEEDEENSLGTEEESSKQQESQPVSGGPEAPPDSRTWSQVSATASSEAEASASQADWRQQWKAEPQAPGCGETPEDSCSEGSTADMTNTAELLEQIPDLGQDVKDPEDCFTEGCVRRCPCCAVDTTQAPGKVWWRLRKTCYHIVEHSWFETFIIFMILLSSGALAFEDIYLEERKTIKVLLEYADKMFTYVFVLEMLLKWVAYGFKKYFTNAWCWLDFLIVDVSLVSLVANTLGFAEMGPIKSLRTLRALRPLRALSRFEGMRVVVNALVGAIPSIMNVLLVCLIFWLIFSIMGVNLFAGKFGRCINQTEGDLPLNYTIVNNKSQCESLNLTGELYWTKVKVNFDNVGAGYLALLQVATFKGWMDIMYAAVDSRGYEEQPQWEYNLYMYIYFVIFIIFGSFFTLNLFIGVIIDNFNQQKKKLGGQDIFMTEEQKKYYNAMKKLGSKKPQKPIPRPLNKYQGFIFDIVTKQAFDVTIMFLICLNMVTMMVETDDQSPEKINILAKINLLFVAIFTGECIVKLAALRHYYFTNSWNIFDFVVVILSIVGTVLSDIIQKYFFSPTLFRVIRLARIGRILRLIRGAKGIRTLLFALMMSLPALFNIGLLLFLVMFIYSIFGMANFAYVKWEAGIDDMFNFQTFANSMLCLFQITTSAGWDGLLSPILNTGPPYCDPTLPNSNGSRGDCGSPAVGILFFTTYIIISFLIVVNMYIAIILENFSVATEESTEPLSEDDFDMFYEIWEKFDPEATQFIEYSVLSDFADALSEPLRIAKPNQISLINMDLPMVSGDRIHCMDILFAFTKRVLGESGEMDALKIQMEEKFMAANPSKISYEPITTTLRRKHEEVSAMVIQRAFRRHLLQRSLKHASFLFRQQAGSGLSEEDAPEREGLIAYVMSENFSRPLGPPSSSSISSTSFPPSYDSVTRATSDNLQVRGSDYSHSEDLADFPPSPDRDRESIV
Assay: Peak INa screening assay (tonic block TB and use-dependent block UDB of peak sodium current)
Assay type: cell-based
Conditions: tonic block; compound at 10 μM; read-out: Tonic Peak INa % blk
Measured Attribute: inhibition at 10 µM (%)
Please give a number only; it is taken to be in %.

So for CCOC(=O)C1=C(C)Nc2nnnn2C1c1c(Br)sc2ccccc12 (stereo not drawn) , the logged inhibition at 10 µM turned out to be 46.2

So for COc1ccc(-c2sc3ccccc3c2C2C(C(=O)OCc3ccccc3)=C(C)Nc3nnnn32)cc1 (stereo not drawn) , the logged inhibition at 10 µM turned out to be 11.1

So for CC1=C(C(=O)OCc2ccccc2)C(c2ccc(N(C)C)c3ccccc23)n2nnnc2N1 (stereo not drawn) , the logged inhibition at 10 µM turned out to be 11.5

So for CCOC(=O)C1=C(C)Nc2nnnn2C1c1cccc(OCc2cccc(C(=O)OC)c2)c1 (stereo not drawn) , the logged inhibition at 10 µM turned out to be 20.7

So for `CCOC(=O)C1=C(C)NC(C)=C(C(=O)OCC)C1c1ccc(CC)s1` , the logged inhibition at 10 µM turned out to be 30.4

So for `CCOC(=O)C1=C(C)NC(C)=C(C(=O)OCC)C1c1ccccc1-c1ccc(NS(C)(=O)=O)cc1` , the logged inhibition at 10 µM turned out to be 5.3

So for CC1=C(C(=O)OCc2ccccc2)C(c2ccccc2OCCN(C)C)n2nnnc2N1 (stereo not drawn) , the logged inhibition at 10 µM turned out to be 38.7

So for CCOC(=O)C1=C(C)Nc2nnnn2C1c1sccc1-c1cccc(F)c1 (stereo not drawn) , the logged inhibition at 10 µM turned out to be 36.8

So for CCOC(=O)C1=C(C)NC2=C(C(=O)CCC2)C1c1ccc(C)c2ccccc12 (stereo not drawn) , the logged inhibition at 10 µM turned out to be 9.6

Numbers sourced from patent US20090012103A1.
